target_under_test: human CD73 (Homo sapiens)
Construct: expressed in transfected cells
assay_comment: Inhibitor activity against CD73 in cell based assay (CD73 expressing CHO-K1 cells)
condition_notes: CHO-K1 cells expressing human CD73, 150 μM AMP, 4 hours of incubation; read-out: CHO-K1 CELL VARIANT: CD73 IC50
Procedure: Determine Inhibitor Activity Against CD73 in Cell Based Assay CD73 expressing CHO-K1 cell clones were generated upon stable transfection of a plasmid expressing human CD73 under the control of CMV promoter. […] AMP level in supernatant was measured indirectly by adding 5 μL of CellTiter-Glo® 2.0 reagent and 5 μL of ATP with a final concentration of 1 μM. Following incubation of plate at room temperature for 30 minutes, luminescent signal was read on a Tecan plate reader. […]
metric: IC50

- COCCn1ncc(N2CC[C@@H](OC(=O)NC3CCC(F)(F)CC3)C2)c(Cl)c1=O: 10 to 100 µM
- O=CNC1CC2(C1)CC(NC(=O)O[C@@H]1CCN(c3cn[nH]c(=O)c3Cl)C1)C2 (some centres unmarked): 0.001 to 10 µM
- CS(=O)(=O)N[C@H]1CC[C@H](NC(=O)O[C@@H]2CCN(c3cnn(CC(O)CO)c(=O)c3Cl)C2)CC1 (some centres unmarked): 0.001 to 10 µM
- O=C(NC1CCN(C(=O)c2ccccc2C(F)(F)F)CC1)O[C@@H]1CCN(c2cn[nH]c(=O)c2Cl)C1: 0.001 to 10 µM
- O=C(NC1Cc2ccccc2C1)O[C@@H]1CCN(c2cn[nH]c(=O)c2Cl)C1: 0.001 to 10 µM
- O=C(N[C@H]1CCC[C@H]1O)O[C@@H]1CCN(c2cn[nH]c(=O)c2Cl)C1: 10 to 100 µM
- CN1CCC(NC(=O)O[C@@H]2CCN(c3cn[nH]c(=O)c3Cl)C2)CC1=O (some centres unmarked): 0.001 to 10 µM
- O=C(O)Cn1ncc(N2CC[C@@H](OC(=O)NC3CCC(F)(F)CC3)C2)c(Cl)c1=O: 10 to 100 µM

Answer for every listed entry: what is its IC50? The entries follow.
1. CC1(NC(=O)O[C@@H]2CCN(c3cnn(CCO)c(=O)c3Cl)C2)CC(F)(F)C1
2. O=C(NCC1CCNCC1)O[C@@H]1CCN(c2cn[nH]c(=O)c2Cl)C1
3. C[C@@H](O)C(=O)N1CCC(NC(=O)O[C@@H]2CCN(c3cn[nH]c(=O)c3Cl)C2)CC1
4. O=C(NC1CC2(C1)CN(S(=O)(=O)c1ccc(F)cc1)C2)O[C@@H]1CCN(c2cn[nH]c(=O)c2Cl)C1
5. O=C(N[C@H]1CC[C@H](NS(=O)(=O)c2ccc(C(F)(F)F)nc2)CC1)O[C@@H]1CCN(c2cn[nH]c(=O)c2Cl)C1
6. O=C(NC1CC2(C1)CN(C(=O)Nc1ccc(F)cc1)C2)O[C@@H]1CCN(c2cn[nH]c(=O)c2Cl)C1

1: 0.001 to 10 µM; 2: 0.001 to 10 µM; 3: 0.001 to 10 µM; 4: 0.001 to 10 µM; 5: 0.001 to 10 µM; 6: 10 to 100 µM

* * *

Would you mind telling me the reported pIC50 of each entry?
target_under_test: human CD73 (Homo sapiens, UniProt P21589)
Sequence (P21589 27-549): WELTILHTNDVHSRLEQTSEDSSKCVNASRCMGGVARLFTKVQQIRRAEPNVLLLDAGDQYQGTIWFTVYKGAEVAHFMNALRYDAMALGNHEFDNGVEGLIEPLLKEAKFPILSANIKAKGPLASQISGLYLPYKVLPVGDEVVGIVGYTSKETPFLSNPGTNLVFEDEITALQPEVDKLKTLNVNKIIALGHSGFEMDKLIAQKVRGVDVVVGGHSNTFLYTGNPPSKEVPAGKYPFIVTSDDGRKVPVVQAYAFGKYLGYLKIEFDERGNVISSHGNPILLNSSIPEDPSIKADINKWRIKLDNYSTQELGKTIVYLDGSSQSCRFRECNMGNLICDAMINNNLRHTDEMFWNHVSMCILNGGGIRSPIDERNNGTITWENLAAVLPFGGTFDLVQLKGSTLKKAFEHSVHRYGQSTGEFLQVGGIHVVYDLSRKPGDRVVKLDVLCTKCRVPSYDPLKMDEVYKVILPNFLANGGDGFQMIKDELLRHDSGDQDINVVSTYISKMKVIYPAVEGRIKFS
assay_comment: Inhibitor activity against CD73 in cell based assay (CD73 expressing CHO-K1 cells)
condition_notes: CHO-K1 cells expressing human CD73, 150 μM AMP, 4 hours of incubation; read-out: CHO-K1 CELL VARIANT: CD73 IC50
Protocol: Determine Inhibitor Activity Against CD73 in Cell Based Assay CD73 expressing CHO-K1 cell clones were generated upon stable transfection of a plasmid expressing human CD73 under the control of CMV promoter. […] AMP level in supernatant was measured indirectly by adding 5 μL of CellTiter-Glo® 2.0 reagent and 5 μL of ATP with a final concentration of 1 μM. Following incubation of plate at room temperature for 30 minutes, luminescent signal was read on a Tecan plate reader. […]
pIC50: −log10 of the molar value.

Answered examples (3):
* O=C(NCC1(CCl)CC(NC(=O)O[C@@H]2CCN(c3cn[nH]c(=O)c3Cl)C2)C1)Nc1ccc(F)cc1 (stereo partly shown) [P-0177] | 5.00 to 9.00
* CCCNC(=O)[C@H]1CC[C@H](NC(=O)O[C@@H]2CCN(c3cn[nH]c(=O)c3Cl)C2)CC1 [P-0191] | 5.00 to 9.00
* O=C(NC1CCN(C(=O)Cc2ccc(F)c(Cl)c2)CC1)O[C@@H]1CCN(c2cn[nH]c(=O)c2Cl)C1 [P-0445] | 5.00 to 9.00

Then this compound:
For the compound CS(=O)(=O)N1CCC(NC(=O)N[C@@H]2CCN(c3cn[nH]c(=O)c3Cl)C2)C1 (stereo partly shown) [P-0052] , what pIC50 is on record?
4.00 to 5.00

Where do the numbers come from? From patent US12509444B2.
